Target: AHR (UniProt P35869)
Construct: IC50
Test: DRE-Luciferase Reporter Assay (Alternate Method) (Example 1B)
Type: cell-based, murine or human
Conditions: cell line and AHR activating ligand not specified
pIC50: −log10 of the molar value.
property label: pIC50

Below are worked cases with known answers.
- compound: "CC(C)c1cnn2c(NC3CCc4cc(O)ccc4C3)cc(-c3cncc(F)c3)nc12 (stereo in doubt) [I-82b]"
  pIC50: "< 5.82"
- compound: "CC(C)c1ccc2c(N[C@@H]3CCc4[nH]c5ccccc5c4C3)nc(-c3cncc(F)c3)nn12 [I-156]"
  pIC50: "< 5.82"
- compound: "CC(C)(C)c1cnn2c(NCCc3c[nH]c4ccccc34)nc(-c3cncc(F)c3)nc12 [I-131]"
  pIC50: "> 6.30"
- compound: "Cc1cnn2c(NCC(=O)c3c[nH]c4ccccc34)cc(-c3cncc(F)c3)nc12 [I-163]"
  pIC50: "> 6.30"
- compound: "O=C(NC1CC1)c1cnn2c(NC3CCc4[nH]c5ccccc5c4C3)nc(-c3cncc(F)c3)nc12 (centres unmarked) [I-285]"
  pIC50: "< 5.82"

Count: 3. Required value per item: pIC50.
1. Fc1cncc(-c2cc(NCCc3c[nH]c4ccccc34)n3nccc3n2)c1 [I-103]
2. Fc1cncc(-c2cc(OC3CCCC3)nc(NCCc3c[nH]c4ccccc34)n2)c1 [I-59]
3. CC(C)c1cnn2c(NC3CCc4[nH]c5ccccc5c4C3)nc(-c3cncc(C(F)(F)F)c3)nc12 (centres unmarked) [I-279]

1. > 6.30
2. > 6.30
3. < 5.82

* * *

Assay: Mouse Pharmacokinetic Study (Example 1C)
Type: in vivo
Conditions: mouse; CD-1 mice, po, 30 mg/kg; plasma
With a cut-off of 2000 ng·h/mL, any AUC(0-t) strictly below it is called Yes; any AUC(0-t) meeting it or above is called No.

- compound: "Fc1cncc(-c2cc(NCCc3c[nH]c4ccccc34)n3ncc(Br)c3n2)c1"
  class: "Yes"
- compound: "C[C@@H](O)c1cnn2c(NCCc3c[nH]c4ccccc34)cc(-c3cncc(F)c3)nc12 [I-222a]"
  class: "No"
- compound: "Fc1cncc(-c2nc(N[C@@H]3CCc4[nH]c5ccccc5c4C3)n3ncc(Br)c3n2)c1"
  class: "No"

Please let me know if "CC(C)c1cnn2c(N[C@@H]3CCc4[nH]c5ccccc5c4C3)nc(-c3cncc(F)c3)nc12" shows AUC(0-t) below 2000 ng·h/mL. No

Please let me know if "Cc1cnn2c(N[C@H]3Cc4ccc(O)cc4C3)cc(-c3cncc(F)c3)nc12" shows AUC(0-t) below 2000 ng·h/mL. Yes

* * *

Test: In Vitro Mouse liver S9 Metabolic Stability Assay (Example 1D)
Assay type: in vitro ADME
Details: CD-1 mouse liver S9, 1 μM compound, 1 mg/mL S9 protein, 37° C., NADPH regenerating system, UDPGA, PAPS
For each of the compounds below, state its Mouse S9 Stability: % Remaining After 60 Minutes.
Answers are plain numbers, in %.

Below are worked cases with known answers.
- compound: "Fc1cncc(-c2cc(NCCc3c[nH]c4ccccc34)n3ncc(C(F)(F)F)c3n2)c1"
  value observed: 50
- compound: "Cc1cnn2c(N[C@H]3Cc4ccc(O)cc4C3)cc(-c3cncc(F)c3)nc12"
  value observed: 5
- compound: "Cc1cnn2c(NCCc3c[nH]c4ccccc34)nc(-c3cncc(F)c3)nc12"
  value observed: 0
- compound: "CC(C)n1cnc2c(N[C@@H]3CCc4[nH]c5ccccc5c4C3)nc(-c3cncc(F)c3)nc21"
  value observed: 54
- compound: "CC(C)c1cnn2c(NCCc3c[nH]c4ccccc34)cc(-c3cncc(F)c3)nc12"
  value observed: 13
- compound: "CC(C)c1cnn2c(NC3Cc4ccc(O)cc4C3)cc(-c3cncc(F)c3)nc12 (stereo not shown)"
  value observed: 10

Moving on to another compound below.
Value lookup for Mouse S9 Stability: % Remaining After 60 Minutes; key = "O=C(c1cnn2c(NCCc3c[nH]c4ccccc34)cc(-c3cncc(F)c3)nc12)N1CCOCC1" 0

* * *

Test: Mouse Pharmacokinetic Study (Example 1C)
Assay type: in vivo
Conditions: mouse; CD-1 mice, iv, 3 mg/kg; plasma
With a cut-off of 40 mL/min/kg, any clearance strictly below it is called condition met; any clearance meeting it or above is called condition not met.

Answered examples (7):
- compound: "Fc1cncc(-c2cc(NCCc3c[nH]c4ccccc34)n3nccc3n2)c1"
  class: "condition not met"
- compound: "C[C@H](O)c1cnn2c(NCCc3c[nH]c4ccccc34)cc(-c3cncc(F)c3)nc12 [I-222b]"
  class: "condition not met"
- compound: "C[C@@H](O)c1cnn2c(NCCc3c[nH]c4ccccc34)cc(-c3cncc(F)c3)nc12 [I-222a]"
  class: "condition met"
- compound: "CC(C)c1cnn2c(N[C@@H]3CCc4[nH]c5ccccc5c4C3)nc(-c3cncc(F)c3)nc12"
  class: "condition not met"
- compound: "Cc1cnn2c(N[C@H]3Cc4ccc(O)cc4C3)cc(-c3cncc(F)c3)nc12"
  class: "condition not met"
- compound: "CN(C)c1cnn2c(NCCc3c[nH]c4ccccc34)cc(-c3cncc(F)c3)nc12"
  class: "condition not met"
- compound: "CC(C)c1cnn2c(N[C@@H]3CCc4[nH]c5ccccc5c4C3)cc(-c3cncc(F)c3)nc12 [I-75a]"
  class: "condition met"

Now consider a different compound.
Please let me know if "C[C@H](O)c1cnn2c(N[C@@H]3CCc4[nH]c5ccccc5c4C3)nc(-c3cncc(F)c3)nc12" shows clearance below 40 mL/min/kg. condition not met

* * *

Target: AHR (UniProt P35869)
Construct: IC50
Assay: DRE-Luciferase Reporter Assay (Alternate Method) (Example 1B)
Format: cell-based, murine or human
Conditions: cell line and AHR activating ligand not specified
property label: IC50

- compound: "CC(C)(O)c1cnn2c(NCCc3c[nH]c4ccccc34)cc(-c3cncc(F)c3)nc12 [I-177]"
  target system: "AHR (UniProt P35869)"
  IC50: "< 500 nM"
- compound: "CC(C)c1cnn2c(N[C@@H](C)Cc3c[nH]c4ccccc34)cc(-c3cncc(F)c3)nc12 [I-98a]"
  target system: "AHR (UniProt P35869)"
  IC50: "> 1500 nM"
- compound: "Cc1cnn2c(N[C@@H]3CCc4[nH]c5c(F)cccc5c4C3)cc(-c3cncc(F)c3)nc12 [I-216a]"
  target system: "AHR (UniProt P35869)"
  IC50: "500 to 1000 nM"

Moving on to another compound below.
Value lookup for IC50; key = CC(C)c1cnn2c(N[C@H]3CCc4[nH]c5c(F)cccc5c4C3)cc(-c3cncc(F)c3)nc12 [I-212] > 1500 nM

* * *

Experiment: Mouse Pharmacokinetic Study (Example 1C)
Type: in vivo
Settings: mouse; CD-1 mice, po, 30 mg/kg; plasma
Entry class follows Cmax: A: < 700 ng/mL; B: ≥ 700 ng/mL and < 1000 ng/mL; C: ≥ 1000 ng/mL

- molecule: "Fc1cncc(-c2cc(NCCc3c[nH]c4ccccc34)n3ncc(Br)c3n2)c1 [I-39]"
  class: "B"
- molecule: "Fc1cncc(-c2nc(N[C@@H]3CCc4[nH]c5ccccc5c4C3)c3ncccc3n2)c1 [I-126]"
  class: "C"
- molecule: "CC(C)c1cnn2c(N[C@@H]3CCc4[nH]ccc4C3)nc(-c3cncc(F)c3)nc12 [I-137b]"
  class: "A"
- molecule: "Fc1cncc(-c2nc(N[C@@H]3CCc4[nH]c5ccccc5c4C3)n3ncc(Br)c3n2)c1 [I-154]"
  class: "B"

Assign a category based on measured Cmax for C[C@@H](O)c1cnn2c(NCCc3c[nH]c4ccccc34)cc(-c3cncc(F)c3)nc12 [I-222a] and give only the class name. C

Assign a category based on measured Cmax for Cc1cnn2c(N[C@@H]3CCc4[nH]c5ccccc5c4C3)nc(-c3cncc(F)c3)nc12 [I-201] and give only the class name. C

Assign a category based on measured Cmax for CN(C)c1cnn2c(N[C@@H]3CCc4[nH]c5ccccc5c4C3)nc(-c3cncc(F)c3)nc12 [I-129] and give only the class name. C

Assign a category based on measured Cmax for Cc1cnn2c(NCCc3c[nH]c4ccccc34)cc(-c3cncc(F)c3)nc12 [I-70] and give only the class name. B

Assign a category based on measured Cmax for C[C@H](O)c1cnn2c(NCCc3c[nH]c4ccccc34)cc(-c3cncc(F)c3)nc12 [I-222b] and give only the class name. C

Assign a category based on measured Cmax for CN(C)c1cnn2c(N[C@H]3Cc4ccc(O)cc4C3)cc(-c3cncc(F)c3)nc12 [I-204b] and give only the class name. A

Assign a category based on measured Cmax for CC(C)c1cnn2c(N[C@H]3CCc4[nH]ccc4C3)nc(-c3cncc(F)c3)nc12 [I-137a] and give only the class name. B

Assign a category based on measured Cmax for CC(C)c1cnn2c(N[C@@H]3CCc4[nH]c5ccccc5c4C3)cc(-c3cncc(F)c3)nc12 [I-75a] and give only the class name. B
